System: UV-induced CUL4-dependent DDB2 degradation in MEF-F-DDB2 cells
Assay notes: Cell-based assay for inhibition of UV-induced CUL4-dependent DDB2 degradation
Design: key: (+) means that the normalized DDB2/α-tubulin ratio is higher in the compound treated sample than DMSO treated sample; (−) means that no change happens between compound treated sample with control sample
Recorded conditions: DDB2/α-tubulin by Western blot
Experimental: Cell-based assay for inhibition of UV-induced CUL4-dependent DDB2 degradation by small molecule CUL4 inhibitors (see Table 1, column 5). Briefly, MEF-F-DDB2 cells were seeded in 6-well plates. […] The cells were lysed, and equal amounts of proteins were resolved on SDS-PAGE gel and Flag-DDB2 levels were detected using anti-DDB2 (D4C4) rabbit antibody (Cell signaling, #5416S). α-tubulin (Proteintech, #66031-1-Ig) was used as an internal loading control. […]
Experimental endpoint: Degradation Inhibition (inhibition of UV-induced DDB2 degradation)

- Compound: "Cc1ccc(S(=O)(=O)N(C)c2ccc(-c3nc(C(=O)O)cc4c3[nH]c3ccc(F)cc34)cc2)cc1"
  Target or test system: "UV-induced CUL4-dependent DDB2 degradation in MEF-F-DDB2 cells"
  Observed measurement: "−"
- Compound: "O=C(O)c1cc2c([nH]c3cc(F)ccc32)c(-c2ccc(OCc3ccoc3)cc2)n1 [PA1-11J]"
  Target or test system: "UV-induced CUL4-dependent DDB2 degradation in MEF-F-DDB2 cells"
  Observed measurement: "−"
- Compound: "O=C(O)c1cc2c([nH]c3cc(F)ccc32)c(-c2ccc(OCc3ccsc3)cc2)n1 [PA1-11I]"
  Target or test system: "UV-induced CUL4-dependent DDB2 degradation in MEF-F-DDB2 cells"
  Observed measurement: "−"
- Compound: "COC(=O)c1cc2c([nH]c3ccccc32)c(-c2ccc(S(C)(=O)=O)cc2)n1"
  Target or test system: "UV-induced CUL4-dependent DDB2 degradation in MEF-F-DDB2 cells"
  Observed measurement: "+"
- Compound: "O=C(O)c1cc2c([nH]c3ccccc32)c(-c2ccc(F)cc2)n1"
  Target or test system: "UV-induced CUL4-dependent DDB2 degradation in MEF-F-DDB2 cells"
  Observed measurement: "+"
- Compound: "COC(=O)c1cc2c([nH]c3cc(F)ccc32)c(-c2ccc(N(C)S(=O)(=O)c3ccc(C#N)cc3)cc2)n1 [PA1-13A-2 ESTER]"
  Target or test system: "UV-induced CUL4-dependent DDB2 degradation in MEF-F-DDB2 cells"
  Observed measurement: "+"
- Compound: "O=C(O)c1cc2c([nH]c3cc(F)ccc32)c(-c2ccc(OCc3ccncc3)cc2)n1 [PA1-11F]"
  Target or test system: "UV-induced CUL4-dependent DDB2 degradation in MEF-F-DDB2 cells"
  Observed measurement: "−"
- Compound: "CN(c1ccc(-c2nc(C(=O)O)cc3c2[nH]c2ccc(F)c(F)c23)cc1)S(=O)(=O)c1ccccc1"
  Target or test system: "UV-induced CUL4-dependent DDB2 degradation in MEF-F-DDB2 cells"
  Observed measurement: "−"

====

System: CUL4A^low T47D breast cancer cells
Assay notes: Cell killing in CUL4-low T47D cells (CellTiter Glo)
Format: cell-based
Recorded conditions: Homo sapiens, T47D, 192 h; Table 3, 0 to 20 μM compound, 8 days treatment; read-out: EC50 OF cell killing, T47D

- Molecule: "CN(c1ccc(-c2nc(C(=O)O)cc3c2[nH]c2cccc(F)c23)cc1)S(=O)(=O)c1ccccc1"
  Target or test system: "CUL4A^low T47D breast cancer cells"
  EC50: "8.27 µM"
- Molecule: "CN(c1ccc(-c2nc(C(=O)O)cc3c2[nH]c2cc(F)ccc23)cc1)S(=O)(=O)c1ccccc1"
  Target or test system: "CUL4A^low T47D breast cancer cells"
  EC50: "3.42 µM"
